Tested on: NCI-H522 lung
Assay: NCI tumour cell line growth inhibition, 48 h; in the data active = GI50 below about 0.43 µM; inactive = the rest
Classes used: 1 (yes) for active, 0 (no) for inactive

{"columns": ["Molecule", "Study system", "Group"],
 "data": [
  ["Cc1cc(N(CCNc2ccnc3cc(Cl)ccc23)Cc2ccc3c(c2)OCO3)nc(N2CCN(C)CC2)n1", "NCI-H522 lung", "0 (no)"],
  ["C[n+]1cc2c3c(ccc2c2ccc4cc5c(cc4c21)OCO5)OCO3", "NCI-H522 lung", "1 (yes)"],
  ["COc1cc(Nc2ccnc(N3CCN(c4ccnc5cc(Cl)ccc45)CC3)n2)cc(OC)c1", "NCI-H522 lung", "0 (no)"],
  ["N/C(=N\\OC(=O)c1ccccc1)C(C(=O)NOC(=O)c1ccccc1)C1CCCCC1 (stereo not given)", "NCI-H522 lung", "0 (no)"],
  ["C/C(=N\\O)c1ccc(Nc2cc(-n3nnc4ccccc43)nc3ccccc23)cc1", "NCI-H522 lung", "0 (no)"]
]}

###

Reported values of TGI for individual entries
Test system: SK-OV-3 ovarian
Assay: NCI tumour cell line growth inhibition, 48 h

{"columns": ["Compound", "Study system", "TGI"],
 "data": [
  ["CSc1ccc(C2=Nn3c(nnc3-c3ccc(F)c(Cl)c3)SC2)cc1", "SK-OV-3 ovarian", "41.9 µM"],
  ["COc1cc(/C=C2\\CN(C)CC3=C2Nc2nc(SC)[nH]c(=O)c2C3c2cc(OC)c(OC)c(OC)c2)cc(OC)c1OC (stereo not given)", "SK-OV-3 ovarian", "12.5 µM"],
  ["NC(Cc1[nH]nc2ccccc12)C(=O)O (stereo not given)", "SK-OV-3 ovarian", "> 100 µM"],
  ["Cc1cnc2[nH]c(-c3cccc(F)c3)cc(=O)c2c1", "SK-OV-3 ovarian", "> 100 µM"],
  ["NCCCCNCCCNC(=O)CNC(=O)CC(O)C(N)CCCC(NC(=O)C(CN)NC(=O)C(O)CNC(=O)CC(N)c1ccc(O)cc1)C(=O)O (stereo not given)", "SK-OV-3 ovarian", "> 10 µM"],
  ["COc1ccc(C2=C(Cl)C(=O)O/C2=C\\c2ccc(OC)c(Br)c2)cc1Cl", "SK-OV-3 ovarian", "> 100 µM"],
  ["O=c1oc2ccccc2c(O)c1C=NC(=S)c1ccncc1", "SK-OV-3 ovarian", "> 100 µM"],
  ["CC1(C)OC[C@@H](C[C@H](O)COCc2ccccc2)O1", "SK-OV-3 ovarian", "> 100 µM"],
  ["CON(C)C(=O)C(C)NC(=O)OCc1ccccc1 (stereo not given)", "SK-OV-3 ovarian", "> 100 µM"],
  ["N#C/C(=C\\c1cccc(Br)c1)c1nc2ccccc2c(=O)[nH]1", "SK-OV-3 ovarian", "> 100 µM"]
]}

###

Reported values of TGI for individual entries
Tested on: MALME-3M melanoma
Experiment: NCI tumour cell line growth inhibition, 48 h

{"columns": ["Compound", "Relational operator", "TGI [µM]"],
 "data": [
  ["C=C(C)C1CC2C(C)=C(OC(C)=O)C1n1c(=O)c3cc4ccccc4cc3c(=O)n12 (stereo not given)", ">", 100],
  ["COc1ccc(C2Oc3c(OC)cc(CCCO)cc3C2CO)cc1OC (stereo not given)", ">", 100],
  ["C=C1CC(COc2ccc3c(C)c(C)c(=O)oc3c2C)(c2ccccc2)OC1=O (stereo not given)", "=", 4.16],
  ["CC(O)CNC1=CC(=O)C(=O)c2ccccc21 (stereo not given)", "=", 17.7],
  ["CC[N+]1(C)CCC(O)(c2ccc(C)cc2)C(C(=O)c2ccc(C)cc2)C1 (stereo not given)", "=", 52.7],
  ["Oc1c(OCc2nnc(CCCCCCCCc3nnc(COc4ccc5ccccc5c4O)o3)o2)ccc2ccccc12", ">", 100],
  ["CC[C@H](C)[C@H](NC(=O)c1cnccn1)C(=O)N(C)[C@H](C[C@@H](OC(C)=O)c1nc(C(=O)N[C@@H](Cc2ccccc2)C[C@H](C)C(=O)OC)cs1)C(C)C", ">", 33.3],
  ["N#Cc1nc(CCCN2C(=O)c3ccccc3C2=O)oc1N", ">", 100],
  ["C#C[C@]1(O)CC[C@H]2[C@@H]3CC=C4c5nc(Nc6ccccn6)sc5CC[C@]4(C)[C@H]3CC[C@@]21C", "=", 2.32],
  ["COc1ccc(C(=O)N2c3ccccc3Sc3ccccc32)c(F)c1", ">", 100]
]}

###

Tested on: U251 CNS
Experiment: NCI tumour cell line growth inhibition, 48 h
Quantity kind: log10 TGI (log10 of the value in µM)

{"columns": ["Compound", "Quantity kind", "Meas value"],
 "data": [
  ["Cc1cc(O)c2c(c1)C(O)(c1ccc3c(c1O)C(=O)c1c(O)cc(C)cc1C3(O)C1OC(CO)C(O)C(O)C1O)c1cccc(O)c1C2=O (stereo not given)", "log10 TGI", 1.38],
  ["C/C(=N\\O)c1ccc(Nc2cc(-n3nnc4ccccc43)nc3ccccc23)cc1", "log10 TGI", 1.40],
  ["NS(=O)(=O)c1ccc(N2Cc3cc(Cl)ccc3OC3=C2C(=O)N(CC2CCCCC2)C3=O)cc1", "log10 TGI", 0.42],
  ["O=C(O)c1cc[c]([Hg][S]c2ncnc3nc[nH]c23)cc1", "log10 TGI", 1.45],
  ["O=P1(C(O)/C=C/c2ccccc2)N(Cc2ccccc2)[C@@H]2CCCC[C@H]2N1Cc1ccccc1 (stereo not given in full)", "log10 TGI", 1.22],
  ["O=C(OC12CC3CC(CC(C3)C1)C2)c1ccc(NCc2cc(O)ccc2O)cc1", "log10 TGI", 0.43],
  ["COC(=O)c1ccc2c(c1)C(NC(C)=O)CCc1cc(OC)c(OC)c(OC)c1-2 (stereo not given)", "log10 TGI", 1.22],
  ["CC(O)CNC1=CC(=O)C(=O)c2ccccc21 (stereo not given)", "log10 TGI", 1.49]
]}

###

Test system: SN12C renal
Assay: NCI tumour cell line growth inhibition, 48 h; in the data active = GI50 below about 0.43 µM; inactive = the rest
Classes used: active, inactive

{"columns": ["Compound", "Group"],
 "data": [
  ["Cc1ccc(C(=O)Nc2ccc(CN3CCN(C)CC3)c(C(F)(F)F)c2)cc1C#Cc1cnc(N)c2ccc(F)cc12", "active"],
  ["Cc1cccc(NC(=O)c2sc3nc4c(cc3c2N)CCCC4)c1C", "inactive"],
  ["CN1C2CC(C#N)C1C=CC2=O (stereo not given)", "inactive"],
  ["CC(C)N(C(C)C)[PH+]1O[PH+](N(C(C)C)C(C)C)O[PH+](N(C(C)C)C(C)C)O[PH+](N(C(C)C)C(C)C)O[PH+](N(C(C)C)C(C)C)O1.[C-]#[O+].[C-]#[O+].[C-]#[O+].[C-]#[O+].[C-]#[O+].[C-]#[O+].[C-]#[O+].[Cr].[Cr] (stereo not given)", "inactive"],
  ["CC[O-].CC[O-].O=C1C(=C([O-])c2ccccc2)C(=O)c2ccccc21.O=C1C(=C([O-])c2ccccc2)C(=O)c2ccccc21.[Ti+4]", "inactive"]
]}

###

Test system: EKVX NSCLC
Assay: NCI tumour cell line growth inhibition, 48 h
Threshold rule: TGI greater than or equal to 30 µM is y; below that, n.

{"columns": ["Compound", "Group"],
 "data": [
  ["O=C(O)C1=NN(c2ccc(S(=O)(=O)O)cc2)C2(C1)C(Cl)C(=O)N2c1nc2ccccc2s1 (centres undefined)", "y"],
  ["Cc1ccc(S(=O)(=O)c2c(O)c3ccc(O)c(C)c3oc2=O)cc1", "y"],
  ["O=C1N[C@@H]2CCC[C@@H]2[C@@H]1c1ccc(Cl)cc1", "y"],
  ["CC(C)(C)c1cc(/C=C2/NC(=O)NC2=O)cc(C(C)(C)C)c1O", "n"],
  ["COC(=O)C1=CCON(c2ccccc2)C1c1ccccc1 (centres undefined)", "y"],
  ["C=C1C(=O)O[C@@H]2C[C@@]3(C)CC(=O)C=C(C)[C@@H]3C[C@H]12", "n"],
  ["CC(CO)[C@H]1OC(=O)C=C2[C@@]13O[C@@H]3[C@H]1OC(=O)[C@@]3(C)[C@H]4O[C@H]4C[C@@]2(C)[C@@H]13 (some centres undefined)", "n"],
  ["CC1(C)C(=O)C(O)=CC2C1=CCC1C2(C)C(=O)CC2(C)C(C(C)(O)C(=O)CC(O)C(C)(C)O)C(O)CC12C (centres undefined)", "y"],
  ["Clc1ccc(OCc2nnc(COc3ccc(OCc4nnc(COc5ccc(Cl)cc5Cl)o4)c(Cl)c3)o2)c(Cl)c1", "y"]
]}

###

System: SR leukemia
Assay: NCI tumour cell line growth inhibition, 48 h
Reported values of TGI for individual entries
Quantity kind: TGI (µM)

{"columns": ["Molecule", "Study system", "Relational operator", "Meas value"],
 "data": [
  ["CC1(C)C(=O)C(O)=CC2C1=CCC1C2(C)C(=O)CC2(C)C(C(C)(O)C(=O)CC(O)C(C)(C)O)C(O)CC12C (stereo not given)", "SR leukemia", "=", 25.3],
  ["C#CCOCC12C=CC(O1)C1COC(=O)C12 (stereo not given)", "SR leukemia", ">", 100],
  ["CC(=O)N(CCN)CCN", "SR leukemia", ">", 10],
  ["O=C(Sc1c(-c2ccccc2)c(=O)n(-c2ccccc2)c(=S)n1-c1ccccc1)c1ccco1", "SR leukemia", ">", 78.9],
  ["Cc1cnc2[nH]c(-c3cccc(F)c3)cc(=O)c2c1", "SR leukemia", "=", 0.378],
  ["Cc1ccc(S(=O)(=O)c2c(O)c3ccc(O)c(C)c3oc2=O)cc1", "SR leukemia", ">", 100],
  ["COc1cc(/C=C2\\CN(C)CC3=C2Nc2nc(SC)[nH]c(=O)c2C3c2cc(OC)c(OC)c(OC)c2)cc(OC)c1OC (stereo not given)", "SR leukemia", ">", 100],
  ["CC(=O)C1(O)CCC2(O)C3(O)CC=C4CC(O)CCC4(C)C3CC(OC(=O)c3ccc(O)cc3)C12C (stereo not given)", "SR leukemia", ">", 100],
  ["C/C(=N/N(C=O)C[n+]1ccccc1)C(CN(CC(C)C)CC(C)C)C(=O)Nc1ccc(C)cc1C (stereo not given)", "SR leukemia", ">", 100],
  ["CCCO/N=[N+](\\[O-])N(CC)CC", "SR leukemia", ">", 100],
  ["CC(CO)[C@H]1OC(=O)C=C2[C@@]13O[C@@H]3[C@H]1OC(=O)[C@@]3(C)[C@H]4O[C@H]4C[C@@]2(C)[C@@H]13 (stereo not given in full)", "SR leukemia", "=", 0.982],
  ["CCCCCCCCCCCCNC(=O)CCC(NC(=O)c1ccc(N(C)Cc2cnc3nc(N)nc(N)c3n2)cc1)C(=O)NCCCCCCCCCCCC (stereo not given)", "SR leukemia", "=", 32.3],
  ["C[n+]1c(-c2ccc(NC(=O)c3ccc(C(=O)Nc4ccc(-c5cn6ccccc6[n+]5C)cc4)cc3)cc2)cn2ccccc21", "SR leukemia", ">", 100],
  ["CC(C)(C)OC(=O)NCC(C#N)CNC(=O)OC(C)(C)C", "SR leukemia", ">", 100],
  ["S=c1[nH]nc(Cn2c3ccc(Br)cc3c3nc4ccccc4nc32)n1C1CCCCC1", "SR leukemia", "=", 60.6],
  ["O=C1CS/C(=N/N=C/c2cn(Cc3ccc(Cl)cc3Cl)c3ccccc23)N1", "SR leukemia", ">", 100],
  ["Cc1nc2c(n1CC(C)(C)C)C(=O)c1ccccc1C2=O", "SR leukemia", ">", 100],
  ["CCOC(=O)c1c(NC(=O)c2ccc(C(C)C)cc2)sc2c(CN(C)C)c(O)ccc12", "SR leukemia", "=", 6.44],
  ["CCN(c1ccc(CO)c(Cl)c1)C(C)c1ccc(F)cc1 (stereo not given)", "SR leukemia", "=", 43.1],
  ["CN(C)CCCNc1cc(O)c2c(c1O)C(=O)c1ccccc1C2=O", "SR leukemia", "=", 15.9]
]}
